The measured values listed here are drawn from ChEMBL document CHEMBL5608229.

Reported values of selectivity ratio for individual entries
assay: Selectivity index, ratio of CC50 for African green monkey COS-7 cells to EC50 for asexual blood-stage CQ-sensitive Plasmodium falciparum 3D7 infected in RBC; format: toxicity; conditions: read-out: Ratio CC50/EC50
Please reply with the value in numeric form only.

Previously resolved entries follow.
COc1cc2nc(NCCc3nc(=O)c4c(C)c(C)sc4[nH]3)nc(N)c2cc1OC ... 9
c1ccc2c(CCNC34CC5CC(CC(C5)C3)C4)c[nH]c2c1 ... 7
COc1cc2nnc(NCC3(N(C)C)CCCCC3)nc2cc1OC ... 78

Which selectivity ratio is reported for this compound? c1ccc(CCN2CCC(NC34CC5CC(CC(C5)C3)C4)CC2)cc1
27

Further, for COCCCNCCCCOc1ccc2ccccc2c1Br ?
2.7

###

Reported values of log10(CC50 at 72 h) for individual entries
experiment: Cytotoxicity against African green monkey COS-7 cells incubated for 72 hrs by MTT assay; type: toxicity, cell-based; conditions: chlorocebus aethiops
The common logarithm of CC50 at 72 h in µM is what is listed.

Which log10(CC50 at 72 h) is reported for this compound? c1ccc2c(CCNC34CC5CC(CC(C5)C3)C4)c[nH]c2c1
1.89

###

test system: Plasmodium falciparum; test: Antiplasmodial activity against asexual blood-stage multidrug-resistant Plasmodium falciparum Dd2 infected in RBC assessed as parasite growth inhibition at 5 uM incubated for 72 hrs by SybrGreen dye based analysis relative to control; type: functional; conditions: Dd2, Erythrocyte
Reported values of inhibition at 5 µM for individual entries

Previously resolved entries follow.
c1ccc(CCN2CCC(NC34CC5CC(CC(C5)C3)C4)CC2)cc1 ... > 90%
C=CCc1cc(CN2CCC3(CC2)CN(C)CCN3C)ccc1O ... > 50%
COc1cc2nc(NCCc3nc(=O)c4c(C)c(C)sc4[nH]3)nc(N)c2cc1OC ... ≥ 50%

Which inhibition at 5 µM is reported for this compound? COc1cc2nnc(NCC3(N(C)C)CCCCC3)nc2cc1OC
> 50%

Further, for CN(C)CCCN(CCCN(C)C)Cc1cccc2ccccc12 ?
> 50%

Further, for Oc1c(CN2CCCCC2)cc(CN2CCCCC2)nc1-c1ccccc1 ?
> 50%

Further, for COCCCNCCCCOc1ccc2ccccc2c1Br ?
≥ 50%

###

experiment: Selectivity index, ratio of CC50 for African green monkey COS-7 cells to EC50 for asexual blood-stage CQ-sensitive Plasmodium falciparum 3D7 infected in RBC; type: toxicity; conditions: read-out: Ratio CC50/EC50
Reported values of selectivity ratio for individual entries

Which selectivity ratio is reported for this compound? C=CCc1cc(CN2CCC3(CC2)CN(C)CCN3C)ccc1O
> 67

Further, for CCc1ccc(C2CC(=O)C3=C(C2)NC(C)=C(C(=O)OCCc2ccccc2)C3c2ccncc2)cc1 (stereo not drawn) ?
9

Further, for CN(C)CCCN(CCCN(C)C)Cc1cccc2ccccc12 ?
> 18

###

assay: Cytotoxicity against human HepG2 cells incubated for 72 hrs by MTT assay; type: toxicity, cell-based
Parameter: CC50 at 72 h (µM)
Report the value in µM with no unit label.

CCCOc1c(Br)cc(C2C3=C(CCCC3=O)NC3=C2C(=O)CCC3)cc1OC ... 30.5

Now for another entry.
Which CC50 at 72 h is reported for this molecule? COCCCNCCCCOc1ccc2ccccc2c1Br
10.4
